Assayed System: human HER2 (23-652) (Homo sapiens)
Experiment Description: Surface plasmon resonance (SPR) for assessment of peptide affinity, human HER2
Assay type: binding
Parameters: towards human HER2 (23-652) and mouse HER2 (23-653); made in house
Condition: SPR, human HER2 extracellular domain, 25° C., 1:1 binding model; read-out: huHER2-SPR-ONC KD
Positions of bridges follow the written chain, without caps; N, C: chain ends. Non-standard residues stand in square brackets, D forms with d. Residues, ends and D or L forms follow the SMILES beside them. Trp(5-OH) = N[C@@H](Cc1c[nH]c2ccc(O)cc12)C(=O)O; NMePhe(4-F) = CN[C@@H](Cc1ccc(F)cc1)C(=O)O; NMehPhe = CN[C@@H](CCc1ccccc1)C(=O)O; Gly(cPr) = N[C@H](C(=O)O)C1CC1; NMeDab = CN[C@@H](CCN)C(=O)O; NMeS = CN[C@@H](CO)C(=O)O
Test Readout: pKd
// scale note: pKd = -log10(conc_M); give the bare number

Compound | Experimental Result
CC(=O)N[C@H]1CCCC(=O)NC[C@@H](C(=O)N(C)[C@@H](Cc2ccc(F)cc2)C(=O)N[C@@H](CCCCNC(=O)CN2CCN(CC(=O)O)CCN(CC(=O)O)CCN(CC(=O)O)CC2)C(N)=O)N(C)C(=O)[C@H]([C@H](C)O)NC(=O)[C@H](Cc2c[nH]c3ccccc23)NC(=O)[C@H](Cc2c[nH]c3ccc(O)cc23)NC(=O)[C@H](CCCCNC(=O)CO)N(C)C(=O)[C@H](CCc2ccccc2)N(C)C(=O)[C@H](CO)NC(=O)[C@H](Cc2ccc(O)cc2)NC1=O [Example C21] | 9.52

Continue with the next compound.
Data request, read-out pKd, for CC(=O)N[C@H]1CC(=O)NCC[C@@H](C(=O)N(C)[C@@H](Cc2ccc(F)cc2)C(N)=O)N(C)C(=O)[C@H](C2CC2)NC(=O)[C@H](Cc2c[nH]c3ccccc23)NC(=O)[C@H](Cc2c[nH]c3ccc(O)cc23)NC(=O)[C@H](CO)N(C)C(=O)[C@H](CCc2ccccc2)N(C)C(=O)[C@H](CO)NC(=O)[C@H](Cc2ccc(O)cc2)NC1=O [Example A9] (Ac-DYS[NMehPhe][NMeS][Trp(5-OH)]W[Gly(cPr)][NMeDab][NMePhe(4-F)]-NH2; lactam 1-9)
6.93

###

Assayed System: mouse HER2 (23-653) (Mus musculus)
Experiment Description: TR-FRET competition assay for peptide potency, mouse HER2
Type: binding
Parameters: mouse HER2 (23-653) using a Cy5 labeled peptide as a probe; made in house; host or cells: mammalian cells
Condition: TR-FRET competition with Cy5 labeled peptide probe, 0.1 nM mouse HER2, 24 h incubation; read-out: moHER2 TR-FRET IC50
Starred links: 1 amine or outer side, 2 acyl side, 3 side chain; linkers in the order of their positions; H or OH if unused. Positions of bridges follow the written chain, without caps; N, C: chain ends. Non-standard residues stand in square brackets, D forms with d. Residues, ends and D or L forms follow the SMILES beside them. Trp(5-OH) = N[C@@H](Cc1c[nH]c2ccc(O)cc12)C(=O)O; NMePhe(4-F) = CN[C@@H](Cc1ccc(F)cc1)C(=O)O; NMehPhe = CN[C@@H](CCc1ccccc1)C(=O)O; Gly(cPr) = N[C@H](C(=O)O)C1CC1; NMeK = CN[C@@H](CCCCN)C(=O)O; NMeC = CN[C@@H](CS)C(=O)O; Dap = NC[C@H](N)C(=O)O; X5 = O=C(C[*:2])[*:1]
Test Readout: pIC50
// scale note: pIC50 = -log10(conc_M); give the bare number

Molecule | Assayed System | Experimental Result
CC(=O)NCCCC[C@H]1C(=O)N[C@@H](Cc2c[nH]c3ccc(O)cc23)C(=O)N[C@@H](Cc2c[nH]c3ccccc23)C(=O)N[C@@H](C2CC2)C(=O)N(C)[C@H](C(=O)N(C)[C@@H](Cc2ccc(F)cc2)C(N)=O)CSCC(=O)NC[C@H](NC(C)=O)C(=O)N[C@@H](Cc2ccc(O)cc2)C(=O)N[C@@H](CO)C(=O)N(C)[C@@H](CCc2ccccc2)C(=O)N1C [Example A51] (Ac-[Dap]YS[NMehPhe][NMeK](Ac)[Trp(5-OH)]W[Gly(cPr)][NMeC][NMePhe(4-F)]-NH2; linker 1-9 via X5) | mouse HER2 (23-653) (Mus musculus) | 7.82

Continue with the next molecule.
Data request, read-out pIC50, for CC(=O)NCCCC[C@H]1C(=O)N[C@@H](Cc2c[nH]c3ccc(O)cc23)C(=O)N[C@@H](Cc2c[nH]c3ccccc23)C(=O)N[C@@H](C2CC2)C(=O)N(C)[C@H](C(=O)N(C)[C@@H](Cc2ccc(F)cc2)C(=O)N2CCC[C@H]2C(N)=O)CNC(=O)CCC[C@H](NC(C)=O)C(=O)N[C@@H](Cc2ccc(O)cc2)C(=O)N[C@@H](CO)C(=O)N(C)[C@@H](CCc2ccccc2)C(=O)N1C
9.52

###

Assayed System: mouse HER2 (23-653) (Mus musculus)
Experiment Description: TR-FRET competition assay for peptide potency, mouse HER2
Format: binding
Parameters: mouse HER2 (23-653) using a Cy5 labeled peptide as a probe; made in house; host or cells: mammalian cells
Condition: TR-FRET competition with Cy5 labeled peptide probe, 0.1 nM mouse HER2, 24 h incubation; read-out: moHER2 TR-FRET IC50
Test Readout: pIC50
// scale note: pIC50 = -log10(conc_M); give the bare number

Could you share what pIC50 was measured for CC(=O)NCCCC[C@H]1C(=O)N[C@@H](Cc2c[nH]c3ccc(O)cc23)C(=O)N[C@@H](Cc2c[nH]c3ccccc23)C(=O)N[C@@H]([C@H](C)O)C(=O)N(C)[C@H](C(=O)N(C)[C@@H](Cc2ccc(F)cc2)C(=O)N[C@@H](CCCCNC(=O)N2CCN(CC(=O)O)CC2)C(N)=O)CNC(=O)CC[C@H](NC(=O)CN2CCN(CC(=O)O)CCN(CC(=O)O)CCN(CC(=O)O)CC2)C(=O)N[C@@H](Cc2ccc(O)cc2)C(=O)N[C@@H](CO)C(=O)N(C)[C@@H](CCc2ccccc2)C(=O)N1C [Example C27] , tested on mouse HER2 (23-653) (Mus musculus)?
7.24

Next: CC(=O)N[C@H]1CCCC(=O)NC[C@@H](C(=O)N(C)[C@@H](Cc2ccc(F)cc2)C(=O)N[C@@H](CCCCNC(=O)CN2CCN(CC(=O)O)CCN(CC(=O)O)CCN(CC(=O)O)CC2)C(N)=O)N(C)C(=O)[C@H]([C@H](C)O)NC(=O)[C@H](Cc2c[nH]c3ccccc23)NC(=O)[C@H](Cc2c[nH]c3ccc(O)cc23)NC(=O)[C@H](CCCCNC(=O)CCO)N(C)C(=O)[C@H](CCc2ccccc2)N(C)C(=O)[C@H](CO)NC(=O)[C@H](Cc2ccc(O)cc2)NC1=O [Example B7]
8.89

Next: CC(=O)NCCCC[C@H]1C(=O)N[C@@H](Cc2c[nH]c3ccc(O)cc23)C(=O)N[C@@H](Cc2c[nH]c3ccccc23)C(=O)N[C@@H](C2CC2)C(=O)N(C)[C@H](C(=O)N(C)[C@@H](Cc2ccc(F)cc2)C(=O)N[C@@H](CCCCNC(=O)CN2CCN(CC(=O)O)CCN(CC(=O)O)CCN(CC(=O)O)CC2)C(N)=O)CNC(=O)CCC[C@H](N)C(=O)N[C@@H](Cc2ccc(O)cc2)C(=O)N[C@@H](CO)C(=O)N(C)[C@@H](CCc2ccccc2)C(=O)N1C [Example C18]
9.22

###

Assayed System: human HER2 (23-652) (Homo sapiens)
Experiment Description: TR-FRET competition assay for peptide potency, human HER2
Assay type: binding
Set-up: towards human HER2 (23-652) and mouse HER2 (23-653); made in house; host or cells: mammalian cells
Condition: read-out: huHER2 TR-FRET IC50
Positions of bridges follow the written chain, without caps; N, C: chain ends. Non-standard residues stand in square brackets, D forms with d. Residues, ends and D or L forms follow the SMILES beside them. Trp(5-OH) = N[C@@H](Cc1c[nH]c2ccc(O)cc12)C(=O)O; NMePhe(4-F) = CN[C@@H](Cc1ccc(F)cc1)C(=O)O; NMehPhe = CN[C@@H](CCc1ccccc1)C(=O)O; Gly(cPr) = N[C@H](C(=O)O)C1CC1; NMeDab = CN[C@@H](CCN)C(=O)O; NMeS = CN[C@@H](CO)C(=O)O
Test Readout: IC50 (µM)
Value expressed in µM; do not type the unit.

Molecule | Test Readout | Unit Text | Experimental Result
CC(=O)N[C@H]1CC(=O)NCC[C@@H](C(=O)N(C)[C@@H](Cc2ccc(F)cc2)C(N)=O)N(C)C(=O)[C@H](C2CC2)NC(=O)[C@H](Cc2c[nH]c3ccccc23)NC(=O)[C@H](Cc2c[nH]c3ccc(O)cc23)NC(=O)[C@H](CO)N(C)C(=O)[C@H](CCc2ccccc2)N(C)C(=O)[C@H](CO)NC(=O)[C@H](Cc2ccc(O)cc2)NC1=O [Example A9] (Ac-DYS[NMehPhe][NMeS][Trp(5-OH)]W[Gly(cPr)][NMeDab][NMePhe(4-F)]-NH2; lactam 1-9) | IC50 | µM | 0.075

Continue with the next molecule.
Data request, read-out IC50, for CN1C(=O)[C@H](CO)NC(=O)[C@H](Cc2ccc(O)cc2)NC(=O)[C@@H](N)CCC(=O)NC[C@@H](C(=O)N(C)[C@@H](Cc2ccc(F)cc2)C(N)=O)N(C)C(=O)[C@H](C2CC2)NC(=O)[C@H](Cc2c[nH]c3ccccc23)NC(=O)[C@H](Cc2c[nH]c3ccc(O)cc23)NC(=O)[C@H](CO)N(C)C(=O)[C@@H]1CCc1ccccc1 [Example A35]
0.053

Origin of values: patent US20250332300A1
